- assay.system: N-terminally His6-tagged recombinant kinase domain of the human c-Met (amino acids 960-1390) (Homo sapiens (Human))
- Sequence (P08581 960-1390): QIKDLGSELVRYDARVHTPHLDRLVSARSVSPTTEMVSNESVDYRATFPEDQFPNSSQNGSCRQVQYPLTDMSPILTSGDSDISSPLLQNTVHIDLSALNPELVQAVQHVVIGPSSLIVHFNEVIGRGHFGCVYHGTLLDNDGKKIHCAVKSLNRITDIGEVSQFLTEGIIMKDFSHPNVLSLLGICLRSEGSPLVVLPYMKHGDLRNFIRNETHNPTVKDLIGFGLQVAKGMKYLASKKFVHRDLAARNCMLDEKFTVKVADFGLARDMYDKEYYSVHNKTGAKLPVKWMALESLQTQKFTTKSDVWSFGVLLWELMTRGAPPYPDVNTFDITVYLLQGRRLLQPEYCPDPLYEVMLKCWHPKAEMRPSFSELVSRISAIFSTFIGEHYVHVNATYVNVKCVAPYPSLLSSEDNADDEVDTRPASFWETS
- assay.overview: c-Met Receptor Tyrosine Kinase Homogeneous Time-Resolved Fluorescence Assay (Alternative Format)
- assay.context: c-Met kinase inhibition, HTRF format, ATP 10 μM
metric: IC50 (µM)
Give bare numbers, in µM.

IC50 for N#CC1=C(C(F)F)NC(C(F)F)=C(C#N)C1c1cc2c(N)nccc2o1 [Example 18] is 1.03
